Data origin: PubChem BioAssay (NCI)

Known growth inhibition of a selection of compounds
protocol details: NCI Yeast Anticancer Drug Screen. Data for the mlh1 rad18 strain (AID 175)
experimental conditions: S. cerevisiae mlh1 rad18 strain growth inhibition; at 50.0 µM; hits give high values
About 79,000 compounds went through this panel and 15% of them were active in at least one assay; those are over-represented in the sample as a whole. Active and inactive are the calls of the source. No stated cut-off is given here; in the data, active means growth inhibition above about 70%; inactive means the rest.

[in] Which growth inhibition is listed for COC1OC2COc3ccccc3OC2C(N=C(N)N[N+](=O)[O-])C1OS (stereo not drawn) ?
[out] 11.3% (inactive)

[in] Which growth inhibition is listed for CC1(Br)Cc2ccccc2C1=O (stereo not drawn) ?
[out] 20.4% (inactive)

[in] Which growth inhibition is listed for CCCCCCCCCCC(=O)O.[Pb] ?
[out] 68.2% (inactive)
